- Test system: HCT-116 colon
- Run description: NCI-60 one-dose screen, 48 h (100 = growth as untreated, 0 = no growth, -100 = all killed)
- Setup conditions: 10 µM unless noted
- Protocol: Growth inhibition of the HCT-116 human tumor cell line is measured as a screen for anti-cancer activity. Cells are grown in 96 well plates and exposed to the test compound for 48 hours. Compounds are tested at a single concentration, which is 10^-5 M for most compounds. The reported endpoint is percent growth (GI% or GIPRCNT), where numbers from 0 - 100% represent growth inhibition, and numbers from -100% - 0 represent cell death. For example, a value of 40 represents 60% growth inhibition. […]
About 83,000 compounds went through this panel and 20% of them were active in at least one assay; those are over-represented in the sample as a whole. The source made the active and inactive calls. How the source made its calls: active means growth percent below 10; inactive means the rest.
Measured metric: growth

Ask: What value of growth has been reported for the following compound? `O=C(c1ccc(F)cc1)C1CCN(CCn2c(=O)[nH]c3ccccc3c2=O)CC1`
Result: 110% (inactive)

New cases:
Ask: What value of growth has been reported for the following compound? `CN1CCN(Cc2ccc(NC(=O)c3cncc(C#Cc4cnc(N)c5ccc(C#N)cc45)c3)cc2C(F)(F)F)CC1`
Result: -65.7% (active)

Ask: Proceed to C/C=C(/C)C(=O)O[C@@H]1CC(C)(C)CC2C34OC(=O)[C@@]21CC[C@@]3(C)[C@]1(C)CCC2C(C)(C)C(=O)CC[C@]2(C)C1C[C@@H]4O (stereo not given in full)
Result: 29.5% (inactive)

Ask: Proceed to `O=C1NCCS(=O)(=O)/C1=C\C=C\c1cccc(C(F)(F)F)c1`
Result: -41.8% (active)

Ask: Proceed to `c1ccc(Cn2cc3c(c2)-c2nc(Nc4ccccc4)ncc2CC3)cc1`
Result: 80.6% [100 µM] (inactive)

Ask: Proceed to CCOC(=O)C1=C(C)N(C)C(=O)N(C)C1c1ccccc1 (stereo not given)
Result: 79.4% (inactive)

Ask: Proceed to COC1CC(O)C2=C(CC3C(/C(C)=C\CC=C(C)C)CCC3(C)O2)C1=O (stereo not given)
Result: 98.9% (inactive)

Ask: Proceed to `Cc1ccc(Nc2oc(-c3ccccc3)nc2[P+](c2ccccc2)(c2ccccc2)c2ccccc2)cc1`
Result: -66.4% (active)

Ask: Proceed to `CSc1nn2c(-c3cc4cc(Br)ccc4oc3=O)ccnc2c1C#N`
Result: 94.3% (inactive)

Ask: Proceed to `Clc1ccc2c(NCCCn3cnc4c(N5CCCC5)nc(Cl)nc43)ccnc2c1`
Result: 93.4% (inactive)

----------
- Tested on: HT29 colon
- Run description: NCI-60 one-dose screen, 48 h (100 = growth as untreated, 0 = no growth, -100 = all killed)
- Setup conditions: 10 µM unless noted
The panel holds about 83,000 compounds, 20% with a hit somewhere; the sample as a whole holds those more often.
Assign class by growth: not lower than 30% means class 1; lower than 30% means class 0.

Ask: API: above_or_equal(metric=growth, cutoff=30%) for item `COc1ccc(N2C(=O)/C(=C/C(Cl)=C/c3ccc([N+](=O)[O-])cc3)SC2=S)cc1`
Result: class 0

Ask: Proceed to `COc1ccc(-c2cn(Cc3ccc4c(Br)cc(Br)c(O)c4n3)nn2)cc1`
Result: class 1

Ask: Proceed to N#CC1=C(N)Oc2c(ccc3ccccc23)C1c1cc2ccccc2n2nnnc12 (stereo not given)
Result: class 0

Ask: Proceed to COc1ccc(C2CC(=O)Oc3c(OC)c4c(c(OC)c32)OCO4)cc1 (stereo not given)
Result: class 1

Ask: Proceed to `Cc1cc2c(c(C)n1)CN(C(=O)Nc1nc(-c3cncs3)ccc1N)C2`
Result: class 1

Ask: Proceed to `[2H]C([2H])([2H])Oc1ccc(/C=C/C(=O)/C=C(O)/C=C/c2ccc(OC([2H])([2H])[2H])c(OC([2H])([2H])[2H])c2)cc1OC([2H])([2H])[2H]`
Result: class 0

Ask: Proceed to C=C(CNCCO)[C@@H]1CC[C@]2(CO)CC[C@]3(C)[C@H](CC[C@@H]4[C@@]5(C)CCC(NCCO)C(C)(C)[C@@H]5CC[C@]43C)[C@@H]12 (stereo not given in full)
Result: class 0

Ask: Proceed to `COc1cc2c(cc1OC)CC[N+](CCC[N+](C)(C)C)=C2`
Result: class 1

Ask: Proceed to `CNc1nc2ncc(-c3c(C)noc3C)cc2n1Cc1ccccc1`
Result: class 1

Ask: Proceed to `Cn1cc(-c2ccc3c(Nc4cccc(NC(=O)Nc5cccc(F)c5)c4)ncnc3c2)cn1`
Result: class 1

Ask: Proceed to `COc1cc(CNC(=O)CCCC/C=C/C(C)C)ccc1OCc1cn(-c2ccc(C(F)(F)F)cc2)nn1`
Result: class 1

Ask: Proceed to `O=C(O)CCCN1C(=O)CSC1=S`
Result: class 1

Ask: Proceed to `COC1=C(OC)C(=O)C(CCCCCCCCCCO)=C(C)C1=O`
Result: class 1

Ask: Proceed to `Cn1ccnc1C(=O)/C=C/c1ccc(C(=O)Nc2ccccc2F)cc1`
Result: class 0

Ask: Proceed to COc1cccc(C2C3=C(COC3=O)N(CCO)c3cc4c(cc32)OCCO4)c1 (stereo not given)
Result: class 0

Ask: Proceed to `NCCNc1ccc([N+](=O)[O-])cc1`
Result: class 1
